tested on: Caenorhabditis elegans L1 (N2); assay: survival and reproduction score of C. elegans L1 (0: 0-10 living worms, 1: 11-20, 2: 21-50, 3: >50, 4: overgrown) (score 0-4); higher = more worms, less nematicidal, active = 1 or less; extreme values may be limits of the assay; conditions: 60 µM; 6 days; temperature: 20 °C
Assign a class; possible classes are Yes for active, No for inactive

## Task # fetch the recorded call for Cc1cccc(-c2nnc(SCC(=O)NCCc3ccccc3)o2)c1 here
## Result No

## Task # fetch the recorded call for Brc1cccc(-c2noc(-c3ccc4c(c3)OCO4)n2)c1 here
## Result No

## Task # fetch the recorded call for O=C(CSc1nnc(-c2cccnc2)o1)c1ccc2ccccc2c1 here
## Result No

## Task # fetch the recorded call for CC(C)(C)c1ccc(OCc2nc(-c3ccccc3)no2)cc1 here
## Result No

## Task # fetch the recorded call for COc1ccccc1-c1nc(-c2ccccc2Cl)no1 here
## Result No

## Task # fetch the recorded call for Cc1ccc(OCc2nc(-c3ccccc3)no2)c(Br)c1 here
## Result No

## Task # fetch the recorded call for c1ccc(-c2noc(COc3cccc4ccccc34)n2)nc1 here
## Result No

## Task # fetch the recorded call for O=C(CSc1nnc(-c2ccccc2)o1)Nc1ccc(Br)cc1F here
## Result No

## Task # fetch the recorded call for Cc1ccc(C)c(OCc2nc(-c3ccccc3Cl)no2)c1 here
## Result No

## Task # fetch the recorded call for COC(=O)c1ccc(CSc2nnc(-c3ccncc3)o2)cc1 here
## Result No

## Task # fetch the recorded call for CC(C)Oc1ccc(-c2nc(-c3cccnc3)no2)cc1 here
## Result Yes

## Task # fetch the recorded call for Cc1ccc(-c2nc(-c3cccnc3)no2)c(C)c1 here
## Result Yes

* * *

test system: Caenorhabditis elegans L1 (N2); assay: survival and reproduction score of C. elegans L1 (0: 0-10 living worms, 1: 11-20, 2: 21-50, 3: >50, 4: overgrown) (score 0-4); higher = more worms, less nematicidal, active = 1 or less; extreme values may be limits of the assay; details: 60 µM; 6 days; temperature: 20 °C
Consider the following compounds; for each one, report its survival and reproduction score.
Simply state the number, no unit and no words.

Field survival and reproduction score (Caenorhabditis elegans L1 (N2)), entry c1coc(-c2nnc(-c3ccco3)o2)c1 : 4

Field survival and reproduction score (Caenorhabditis elegans L1 (N2)), entry Cc1ccccc1OCc1nc(-c2cccs2)no1 : 1

Field survival and reproduction score (Caenorhabditis elegans L1 (N2)), entry Cc1ccc(-c2nnc(SCc3c(C)cc(C)cc3C)o2)cc1 : 4

Field survival and reproduction score (Caenorhabditis elegans L1 (N2)), entry CC(C)C(=O)Nc1ccccc1-c1nc(-c2ccncc2)no1 : 4

Field survival and reproduction score (Caenorhabditis elegans L1 (N2)), entry CC1CCN(C(=O)CSc2nnc(-c3cccc(Cl)c3)o2)CC1 : 4

Field survival and reproduction score (Caenorhabditis elegans L1 (N2)), entry Cc1ccc(NC(=O)CSc2nnc(-c3ccco3)o2)cc1Cl : 4

Field survival and reproduction score (Caenorhabditis elegans L1 (N2)), entry CCOc1nc(-c2ccccc2)ccc1-c1noc(-c2ccccc2F)n1 : 4

Field survival and reproduction score (Caenorhabditis elegans L1 (N2)), entry Cc1cc(Cl)ccc1NC(=O)CSc1nnc(-c2ccncc2)o1 : 4

Field survival and reproduction score (Caenorhabditis elegans L1 (N2)), entry CNC(=O)c1ccccc1-c1nc(-c2ccc(F)cc2)no1 : 4

Field survival and reproduction score (Caenorhabditis elegans L1 (N2)), entry Clc1ccc(SCc2nc(-c3cccnc3)no2)cc1 : 2.5

Field survival and reproduction score (Caenorhabditis elegans L1 (N2)), entry O=C(CSc1nnc(-c2ccccc2)o1)c1ccc(Br)cc1 : 4

Field survival and reproduction score (Caenorhabditis elegans L1 (N2)), entry CC(Oc1ccccc1)c1nc(-c2cccnc2)no1 (configuration not stated) : 4

* * *

Consider the following compounds; for each one, report its survival and reproduction score.
system: Caenorhabditis elegans L1 (N2); experiment: survival and reproduction score of C. elegans L1 (0: 0-10 living worms, 1: 11-20, 2: 21-50, 3: >50, 4: overgrown) (score 0-4); higher = more worms, less nematicidal, active = 1 or less; extreme values may be limits of the assay; conditions: 60 µM; 6 days; temperature: 20 °C
Simply state the number, no unit and no words.

Looking up CCCSc1nnc(-c2ccc(Cl)cc2Cl)o1 , I found its survival and reproduction score recorded as 0

Looking up CCOc1cc(-c2nc(-c3ccccc3C)no2)cc(OCC)c1OCC , I found its survival and reproduction score recorded as 4

Looking up O=C(c1ccccc1-c1nc(-c2ccc(F)cc2)no1)N1CCCC1 , I found its survival and reproduction score recorded as 4

Looking up Cc1csc(NC(=O)CSc2nnc(-c3ccccc3Cl)o2)n1 , I found its survival and reproduction score recorded as 4

Looking up Cc1cccc(-c2nnc(SCC(=O)Nc3ccc(Br)c(C)c3C)o2)c1 , I found its survival and reproduction score recorded as 4

Looking up Cc1ccc(C)c(-c2nc(-c3ccncc3)no2)c1 , I found its survival and reproduction score recorded as 0

Looking up Cc1ncc2c(c1-c1noc(-c3ccccc3)n1)CCC2 , I found its survival and reproduction score recorded as 4

Looking up COc1ccc(-c2noc(COc3ccccc3Cl)n2)cc1 , I found its survival and reproduction score recorded as 4

Looking up Fc1ccc(-c2nc(-c3ccc(Cl)cc3)no2)cc1 , I found its survival and reproduction score recorded as 4

Looking up COc1ccccc1-c1noc(-c2ccccc2C)n1 , I found its survival and reproduction score recorded as 4

Looking up COC(=O)c1ccc(NC(=O)CSc2nnc(-c3ccc(Cl)cc3Cl)o2)cc1 , I found its survival and reproduction score recorded as 4

Looking up Cc1ccccc1-c1nc(-c2ccc3c(c2)OCO3)no1 , I found its survival and reproduction score recorded as 2.5

Looking up CCOC(=O)c1ccc(NC(=O)c2ccccc2-c2nc(-c3cccc(C)c3)no2)cc1 , I found its survival and reproduction score recorded as 4

Looking up COc1ccc(-c2noc(-c3ccc(Cl)cc3Cl)n2)cc1 , I found its survival and reproduction score recorded as 4

Looking up COc1ccc(-c2noc(COc3ccc(C)c(C)c3)n2)cc1 , I found its survival and reproduction score recorded as 4

Looking up Clc1ccc(-c2nc(-c3ccncc3)no2)cc1Cl , I found its survival and reproduction score recorded as 4

Looking up COc1ccc(-c2nnc(SCC(=O)OCc3ccccc3)o2)cc1 , I found its survival and reproduction score recorded as 4

Looking up Cc1ccccc1-c1nnc(SCc2ccc(F)cc2)o1 , I found its survival and reproduction score recorded as 3.5

Looking up COc1ccc(-c2noc(COc3ccc4c(c3)CCCC4)n2)cc1 , I found its survival and reproduction score recorded as 4

Looking up Ic1ccc(-c2nc(-c3cccnc3)no2)cc1 , I found its survival and reproduction score recorded as 0

Looking up COc1ccc(Cl)cc1-c1noc(-c2ccccc2)n1 , I found its survival and reproduction score recorded as 1

Looking up Clc1ccc(-c2nc(C3CCCCC3)no2)cc1 , I found its survival and reproduction score recorded as 4

Looking up Cc1ccc(-c2noc(COc3ccc(C)cc3C)n2)cc1 , I found its survival and reproduction score recorded as 4

Looking up c1ccc(COc2cccc(-c3nc(-c4ccccn4)no3)c2)cc1 , I found its survival and reproduction score recorded as 4

Looking up Cc1ccc(-c2nc(-c3ccccc3Cl)no2)c(Cl)c1 , I found its survival and reproduction score recorded as 4

Looking up CCOc1ccc(-c2nc(-c3ccc(C)cc3)no2)cc1 , I found its survival and reproduction score recorded as 0

Looking up COc1ccc(-c2noc(COc3ccccc3C)n2)cc1 , I found its survival and reproduction score recorded as 4

Looking up Cn1c(SCc2nc(-c3ccccc3)no2)nnc1-c1ccco1 , I found its survival and reproduction score recorded as 0

Looking up CCOc1cc(-c2noc(-c3ccncc3)n2)ccc1OC , I found its survival and reproduction score recorded as 4

Looking up O=C(CSc1nnc(-c2ccco2)o1)Nc1cccc(C(F)(F)F)c1 , I found its survival and reproduction score recorded as 4

Looking up Cc1cc(OCc2nc(-c3ccncc3)no2)ccc1Br , I found its survival and reproduction score recorded as 4

Looking up Cc1cc(C)c(OCc2nc(-c3ccncc3)no2)c(C)c1 , I found its survival and reproduction score recorded as 4

Looking up CC(C)Oc1ccc(-c2nc(-c3ccccc3)no2)cc1 , I found its survival and reproduction score recorded as 0

Looking up Cc1ccc(OC(C)c2nc(-c3ccc4c(c3)OCO4)no2)cc1C (stereo not given) , I found its survival and reproduction score recorded as 4

Looking up O=C(CSc1nnc(-c2ccncc2)o1)Nc1cc(Cl)cc(Cl)c1 , I found its survival and reproduction score recorded as 4

Looking up Cc1cccc(C)c1NC(=O)CSc1nnc(-c2ccncc2)o1 , I found its survival and reproduction score recorded as 4

Looking up c1ccc(CSc2nnc(-c3ccccc3)o2)cc1 , I found its survival and reproduction score recorded as 0

Looking up CCOC(=O)c1c(NC(=O)CSc2nnc(-c3ccccc3OCC)o2)sc(C(C)=O)c1C , I found its survival and reproduction score recorded as 4

Looking up CCCCCSc1nnc(-c2ccc(Cl)cc2Cl)o1 , I found its survival and reproduction score recorded as 2

Looking up O=C(CSc1nnc(-c2cccc3ccccc23)o1)c1ccc(F)cc1 , I found its survival and reproduction score recorded as 4

Looking up Fc1ccc(-c2noc(COc3ccccc3)n2)cc1 , I found its survival and reproduction score recorded as 3.5

Looking up COc1cccc(-c2noc(COc3ccc(Br)cc3)n2)c1 , I found its survival and reproduction score recorded as 4

Looking up CC(C)C(=O)Nc1ccccc1-c1nc(-c2ccccn2)no1 , I found its survival and reproduction score recorded as 4

Looking up CC1Cc2ccccc2N1C(=O)CSc1nnc(-c2ccccc2)o1 (stereo not given) , I found its survival and reproduction score recorded as 4

Looking up CCOc1ccccc1NC(=O)CSc1nnc(-c2ccco2)o1 , I found its survival and reproduction score recorded as 4

Looking up CCc1nc(-c2ccc(-c3ccccc3)nc2OC)no1 , I found its survival and reproduction score recorded as 4

Looking up O=C(CSc1nnc(-c2cccc(F)c2)o1)Nc1ccccc1C(=O)c1ccccc1 , I found its survival and reproduction score recorded as 4

Looking up Cc1ccc(-c2nnc(SCc3ccccc3)o2)cc1 , I found its survival and reproduction score recorded as 0

Looking up COc1cccc(-c2noc(-c3ccc(C)cc3Cl)n2)c1 , I found its survival and reproduction score recorded as 4

Looking up Cc1cc(OCc2nc(-c3ccncc3)no2)c(C)c(C)c1Br , I found its survival and reproduction score recorded as 4
